assay.name: NCI Yeast Anticancer Drug Screen. Data for the cln2 rad14 strain (AID 165);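 note: 0% = growth equal to vehicle treated cultures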
details: S. cerevisiae cln2 rad14 strain, at 50.0 µM, active compounds read high
The panel holds about 79,000 compounds, 15% with a hit somewhere; the sample as a whole holds those more often. Active and inactive are the calls of the source. Cut-off read from the data, not from the text of the source: active = growth inhibition above about 70%; inactive = the rest. Where a SMILES comes first, the peptide text is derived from it. Bridges are numbered along the chain shown (N, C = ends). [ ]: non-standard residue; d: D form. The star is where a group is joined. ξ: configuration not given here. ξNMePhe(4-NMe2) = CNC(Cc1ccc(N(C)C)cc1)C(=O)O; Picolinoyl(3-OH) = O=C(c1ncccc1O)*; ξPip(4-oxo) = O=C1CCNC(C(=O)O)C1; Phg = N[CH](C(=O)O)c1ccccc1; Abu = CC[CH](N)C(=O)O
property.label: growth inhibition

Consider the reported growth inhibition for these compounds:
The recorded growth inhibition for `COc1ccccc1N1CCN(C(=S)Nc2ccccc2)CC1` is -1.05% (inactive)

The recorded growth inhibition for `Cc1cccc(CO)c1` is -57% (inactive)

The recorded growth inhibition for `C=CCNc1ccccc1` is -36.6% (inactive)

The recorded growth inhibition for `CC1(C)S(=O)(=O)OCCOS1(=O)=O` is -20.5% (inactive)

The recorded growth inhibition for `O=S(=O)(Cc1ccccc1)c1ccccc1` is -0.8% (inactive)

***
The recorded growth inhibition for CCC1NC(=O)C(NC(=O)c2ncccc2O)C(C)OC(=O)C(c2ccccc2)NC(=O)C2CC(=O)CCN2C(=O)C(Cc2ccc(N(C)C)cc2)N(C)C(=O)C2CCCN2C1=O (centres undefined) (tested in a mixture with another compound) ({Picolinoyl(3-OH)}-T[Abu]P[ξNMePhe(4-NMe2)][ξPip(4-oxo)][Phg]; ester 1-C; configuration not given here) is 20.7% (inactive)

The recorded growth inhibition for `CC(=O)N(C)c1ccc([N+](=O)[O-])cc1` is 26.2% (inactive)

The recorded growth inhibition for `NCCC(=O)c1ccc(Cl)cc1` is 4.45% (inactive)

The recorded growth inhibition for NC(CSC(c1ccccc1)(c1ccccc1)c1ccccc1)C(=O)O (centres undefined) is 20.8% (inactive)

The recorded growth inhibition for `O=C(O)CCCc1ccccc1` is -7.65% (inactive)

The recorded growth inhibition for `COc1cc(CCN=Cc2ccccc2O)c([N+](=O)[O-])cc1OC` is 11.7% (inactive)

The recorded growth inhibition for C#C[C@H]1CCCCCC1O (some centres undefined) is 14.4% (inactive)

The recorded growth inhibition for `C/C(=C\c1ccc([N+](=O)[O-])cc1)C(=O)O` is 12.2% (inactive)

The recorded growth inhibition for `CCN(CC)CCNc1ccc(CO)c2sc3ccccc3c(=O)c12` is 2.6% (inactive)
